Attribution: patent US20120237528A1

- target or test system: T1, Cynomolgous monkey (cyno) TF-ECD with His Tag (cynomolgus monkey, UniProt P13726 33-251 (human entry))
- T1 construct: also called cyno antigen
- T1 chain: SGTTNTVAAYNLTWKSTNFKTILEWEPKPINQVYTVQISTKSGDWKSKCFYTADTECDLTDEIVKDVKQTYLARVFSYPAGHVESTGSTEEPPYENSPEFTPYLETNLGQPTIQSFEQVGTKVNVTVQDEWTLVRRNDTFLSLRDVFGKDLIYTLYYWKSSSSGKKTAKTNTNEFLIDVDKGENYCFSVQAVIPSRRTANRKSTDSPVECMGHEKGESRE
- method: Biacore
metric: pKd
Field pKd (float): negative decimal logarithm of the concentration in molar.

Worked cases, pKd given:
M16 (antibody, V domains shown, complete MAb; FR4 is its own entry; also called H16/L2) VH: QVQLVQSGAEVKKPGASVKVSCKASGYTFITYWIEWVRQAPGQGLEWMGDILPGSGSTNYNENFKGRVTMTRDTSTSTVYMELSSLRSEDTAVYYCARSGYYGNSGFAYWGQGTLVTVSS VL: DIVMTQSPDSLAVSLGERATINCKSSQSLLSSGNQKNYLTWYQQKPGQPPKLLIYWASTRESGVPDRFSGSGSGTDFTLTISSLQAEDVAVYYCQNDYTYPLTFGQGTKLEIK : 8.71
M59 (antibody, V domains shown, FR4 is its own entry; also called H22/L3) VH: EVQLVQSGAEVKKPGESLRISCKGSGYTFITYWIEWVRQMPGKGLEWMGDILPGSGSTNYSPSFQGHVTISADKSISTAYLQWSSLKASDTAMYYCARSGYYGNSGFAYWGQGTLVTVSS VL: DIVMTQTPLSLPVTPGEPASISCKSSQSLLSSGNQKNYLTWYLQKPGQSPQLLIYWASTRESGVPDRFSGSGSGTDFTLKISRVEAEDVGVYYCQNDYTYPLTFGQGTKLEIK : 8.89
M58 (antibody, V domains shown, complete MAb; FR4 is its own entry; also called H22/L2) VH: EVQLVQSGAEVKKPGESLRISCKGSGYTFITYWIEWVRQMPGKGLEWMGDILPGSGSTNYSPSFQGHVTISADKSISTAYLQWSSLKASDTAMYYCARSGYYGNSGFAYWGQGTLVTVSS VL: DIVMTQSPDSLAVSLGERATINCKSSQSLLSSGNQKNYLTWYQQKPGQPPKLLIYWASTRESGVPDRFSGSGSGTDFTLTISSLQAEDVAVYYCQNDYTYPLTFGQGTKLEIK : 8.93
M10 (antibody, V domains shown, complete MAb; FR4 is its own entry; also called H15/L3) VH: EVQLVQSGAEVKKPGESLRISCKGSGYTFITYWIEWVRQMPGKGLEWMGDILPGSGSTNYNENFKGHVTISADKSISTAYLQWSSLKASDTAMYYCARSGYYGNSGFAYWGQGTLVTVSS VL: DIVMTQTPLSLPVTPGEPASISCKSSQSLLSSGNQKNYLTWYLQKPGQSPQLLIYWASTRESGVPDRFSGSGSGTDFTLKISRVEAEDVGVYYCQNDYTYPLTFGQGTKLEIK : 8.80
M19 (antibody, V domains shown, complete MAb; FR4 is its own entry; also called H16/L5) VH: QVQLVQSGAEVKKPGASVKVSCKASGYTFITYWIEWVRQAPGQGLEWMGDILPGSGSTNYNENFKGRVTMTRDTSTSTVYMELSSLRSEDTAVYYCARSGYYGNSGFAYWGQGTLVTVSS VL: DIVMTQTPLSLSVTPGQPASISCKSSQSLLSSGNQKNYLTWYLQKPGQPPQLLIYWASTRESGVPDRFSGSGSGTDFTLKISRVEAEDVGVYYCQNDYTYPLTFGQGTKLEIK : 8.55
M1, 10H10 mouse-human chimera (antibody, V domains shown, also called H13/L1; parent chimeric antibody) VH: QVHLQQSGAELMKPGASVKISCKASGYTFITYWIEWVKQRPGHGLEWIGDILPGSGSTNYNENFKGKATFTADSSSNTAYMQLSSLTSEDSAVYYCARSGYYGNSGFAYWGQGTLVTVSA VL: DIVMTQSPSSLTVTAGEKVTMSCKSSQSLLSSGNQKNYLTWYQQIPGQPPKLLIYWASTRESGVPDRFTGSGSGTDFTLTINSVQAEDLAVYYCQNDYTYPLTFGAGTKLELK : 8.87
M9 (antibody, V domains shown, complete MAb; FR4 is its own entry; also called H15/L2) VH: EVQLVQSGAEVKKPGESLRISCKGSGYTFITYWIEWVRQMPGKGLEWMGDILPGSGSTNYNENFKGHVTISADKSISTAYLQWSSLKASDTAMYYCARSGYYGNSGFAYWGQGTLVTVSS VL: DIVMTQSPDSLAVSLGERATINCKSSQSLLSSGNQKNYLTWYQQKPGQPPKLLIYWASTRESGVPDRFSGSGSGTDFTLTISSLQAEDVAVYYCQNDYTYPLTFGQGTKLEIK : 8.81
M61 (antibody, V domains shown, complete MAb; FR4 is its own entry; also called H22/L5) VH: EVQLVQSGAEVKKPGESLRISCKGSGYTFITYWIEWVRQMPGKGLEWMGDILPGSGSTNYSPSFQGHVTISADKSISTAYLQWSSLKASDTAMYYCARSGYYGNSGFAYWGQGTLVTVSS VL: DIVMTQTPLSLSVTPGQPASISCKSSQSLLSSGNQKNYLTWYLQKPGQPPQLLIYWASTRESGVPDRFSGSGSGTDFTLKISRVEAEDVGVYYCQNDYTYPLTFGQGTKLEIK : 8.77
M60 (antibody, V domains shown, complete MAb; FR4 is its own entry; also called H22/L4) VH: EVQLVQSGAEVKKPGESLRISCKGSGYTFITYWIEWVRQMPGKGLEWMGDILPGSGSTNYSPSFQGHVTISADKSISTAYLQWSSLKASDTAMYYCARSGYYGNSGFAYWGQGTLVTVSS VL: DIVMTQSPLSLPVTPGEPASISCKSSQSLLSSGNQKNYLTWYLQKPGQSPQLLIYWASTRESGVPDRFSGSGSGTDFTLKISRVEAEDVGVYYCQNDYTYPLTFGQGTKLEIK : 8.88
M11 (antibody, V domains shown, complete MAb; FR4 is its own entry; also called H15/L4) VH: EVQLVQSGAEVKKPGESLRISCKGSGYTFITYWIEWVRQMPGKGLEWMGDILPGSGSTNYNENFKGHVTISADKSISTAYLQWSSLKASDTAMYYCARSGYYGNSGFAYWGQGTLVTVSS VL: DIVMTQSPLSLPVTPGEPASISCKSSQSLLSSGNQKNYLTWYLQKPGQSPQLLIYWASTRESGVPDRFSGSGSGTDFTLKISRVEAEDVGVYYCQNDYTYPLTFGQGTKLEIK : 8.82

Field: next binder
Query: # get_value(readout='pKd', item= M12 (antibody, V domains shown, complete MAb; FR4 is its own entry; also called H15/L5) VH: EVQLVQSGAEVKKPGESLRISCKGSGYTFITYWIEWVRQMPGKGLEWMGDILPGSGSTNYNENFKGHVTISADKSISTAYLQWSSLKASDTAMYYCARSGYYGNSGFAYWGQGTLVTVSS VL: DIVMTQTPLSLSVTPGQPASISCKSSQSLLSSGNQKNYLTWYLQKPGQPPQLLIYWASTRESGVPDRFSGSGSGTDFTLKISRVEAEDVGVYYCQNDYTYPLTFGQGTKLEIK )
Result: 8.65
